Provide the recorded pKi for the entries that follow.
# systemName: Carbonic anhydrase 9 (Homo sapiens, UniProt Q16790)
# testDetails: Inhibition of human recombinant carbonic anhydrase 9 expressed in Escherichia coli pre-incubated for 15 mins by stopped-flow CO2 hydration assay
FYI, pKi means -log10 of a concentration in mol per litre.

Ask: Suppose we examine the compound O=C(O)[C@H]1CCCN(C(=S)S)C1 ; what pKi value has been reported?
Reply: 7.06

Ask: Similarly, CC1COCCN1C(=S)S (stereo not drawn) ?
Reply: 7.26

Ask: Same read-out for CC(=O)NC1CCCN(C(=S)S)C1 (stereo not drawn) ?
Reply: 8.02

Ask: Also need CN(C)CCNC(=S)S , thanks.
Reply: 7.42

Ask: Quick one: OC1CCCN(C(=S)S)C1 (stereo not drawn)
Reply: 8.12

Ask: Now the same for S=C(S)N1CCCCC1
Reply: 9.04

Ask: And then NS(=O)(=O)c1ccc(CCNC(=S)S)cc1 , what is it?
Reply: 9.04

Ask: Can you check OCCCCCNC(=S)S next?
Reply: 8.59
